Biological target: NHE-1 (Homo sapiens)
Construct: endogenous in cells
Test: Evaluation of NHE-1 Inhibition (pHi) in HT-29 cells
Conditions: BCECF dye, 50% inhibition of the intracellular pH recovery, read-out: NHE1 HT29 pHi IC50
test-readout: IC50 (nM)

Answered examples (4):
> print(dat)
                              smiles.string  recorded.measurement
1  Cc1cc(C2CCN(C(=O)c3ccc(F)cc3)CC2)c(C(F)(F)F)cc1C(=O)NC(=N)N                     7
2  COc1cc(C2CCN(C(=O)c3ccc(F)cc3)CC2)c(C(F)(F)F)cc1C(=O)NC(=N)N                    16
3  N=C(N)NC(=O)c1ccc(C2CCN(C(=O)c3cccc(-c4cccnc4)c3)CC2)c(C(F)(F)F)c1                   140
4  N=C(N)NC(=O)c1ccc(C2CCN(C(=O)c3cscn3)CC2)c(C(F)(F)F)c1                    18

A = N#Cc1ccc(C(=O)N2CCC(c3ccc(C(=O)NC(=N)N)cc3C(F)(F)F)CC2)cc1
B = Cc1ccc(C(=O)N2CCC(c3cc(C)c(C(=O)NC(=N)N)cc3C(F)(F)F)CC2)cn1
C = N=C(N)NC(=O)c1ccc(C2CCN(C(=O)Cc3ccc(F)cc3)CC2)c(C(F)(F)F)c1
D = COc1cccnc1C(=O)N1CCC(c2ccc(C(=O)NC(=N)N)cc2C(F)(F)F)CC1
Input line: Hey, quick one: sort these by IC50, low to high? Provide the ranking by listing each label in its place in the requested order.
Output line: A, D, B, C

* * *

Biological target: NHE-1 (Homo sapiens, UniProt P19634)
Construct: endogenous in cells
Sequence (P19634 whole entry): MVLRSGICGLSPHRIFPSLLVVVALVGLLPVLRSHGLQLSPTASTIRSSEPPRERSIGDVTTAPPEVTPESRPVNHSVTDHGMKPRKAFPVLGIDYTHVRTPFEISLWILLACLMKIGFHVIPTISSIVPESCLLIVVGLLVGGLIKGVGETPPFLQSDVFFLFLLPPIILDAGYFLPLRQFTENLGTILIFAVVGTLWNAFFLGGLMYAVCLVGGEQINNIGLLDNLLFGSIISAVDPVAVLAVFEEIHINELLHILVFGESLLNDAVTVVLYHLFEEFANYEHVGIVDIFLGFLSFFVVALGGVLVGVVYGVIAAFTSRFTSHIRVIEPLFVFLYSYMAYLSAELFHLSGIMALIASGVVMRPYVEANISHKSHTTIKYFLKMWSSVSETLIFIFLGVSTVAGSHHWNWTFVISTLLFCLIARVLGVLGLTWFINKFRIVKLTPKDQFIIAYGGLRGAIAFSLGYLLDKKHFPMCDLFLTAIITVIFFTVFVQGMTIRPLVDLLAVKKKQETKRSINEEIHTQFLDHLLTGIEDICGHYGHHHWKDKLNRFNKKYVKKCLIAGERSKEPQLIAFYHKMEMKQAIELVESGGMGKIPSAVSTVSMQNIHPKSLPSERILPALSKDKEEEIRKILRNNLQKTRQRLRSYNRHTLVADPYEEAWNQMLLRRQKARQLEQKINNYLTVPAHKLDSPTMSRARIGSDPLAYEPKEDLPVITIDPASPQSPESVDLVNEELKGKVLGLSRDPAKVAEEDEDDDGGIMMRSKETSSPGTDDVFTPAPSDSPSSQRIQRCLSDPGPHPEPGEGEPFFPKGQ
Assay: Evaluation of NHE-1 Inhibition (pHi) in HT-29 cells
Conditions: BCECF dye, 50% inhibition of the intracellular pH recovery, read-out: NHE1 HT29 pHi IC50
pIC50: −log10 of the molar value.
test-readout: pIC50

1 = N=C(N)NC(=O)c1ccc(C2CCN(C(=O)c3ccncc3)CC2)c(C(F)(F)F)c1
2 = CCCC(=O)N1CCC(c2ccc(C(=O)NC(=N)N)cc2C(F)(F)F)CC1
3 = Cc1cc(C2CCN(C(=O)c3cc4ccccc4[nH]3)CC2)c(C(F)(F)F)cc1C(=O)NC(=N)N
Input line: Please put the 3 compounds above in a list ordered by falling pIC50. Provide the ranking by listing each label in its place in the requested order.
Output line: 1, 2, 3

P = COCc1ccc(C(=O)N2CCC(c3ccc(C(=O)NC(=N)N)cc3C(F)(F)F)CC2)cc1
Q = N=C(N)NC(=O)c1ccc(C2CCN(C(=O)c3ccc(O)cc3)CC2)c(C(F)(F)F)c1
Input line: Endpoint returns whichever of P and Q has the numerically higher pIC50. Answer with the label corresponding to your selection.
Output line: Q

A = Cc1cc(C2CCN(C(=O)c3cccc(C#N)c3)CC2)c(S(C)(=O)=O)cc1C(=O)NC(=N)N
B = CC(C)(N)C(=O)N1CCC(c2ccc(C(=O)NC(=N)N)cc2C(F)(F)F)CC1
Input line: Endpoint returns whichever of A and B has the numerically higher pIC50. Answer with the label corresponding to your selection.
Output line: B
(B: 8.10, A: 7.64)

A = N=C(N)NC(=O)c1ccc(C2CCN(C(=O)C3(N)CCCC3)CC2)c(C(F)(F)F)c1
B = N=C(N)NC(=O)c1ccc(C2CCN(C(=O)c3cccc(-c4cnco4)c3)CC2)c(C(F)(F)F)c1
Input line: # min-compare on pIC50 between A and B Answer with the label corresponding to your selection.
Output line: B

The reported measurements were obtained from patent US20110118262A1.
